Experiment: CRL2098 osteosarcoma cell growth inhibition, synergistic combos for chromothripsis tumors, BGB or cisplatin IC20 combos (AID 1671454);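 note: cells exposed for 96 h before readout; 0% = vehicle DMSO and 100% = killing by high DMSO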
Conditions: CRL2098 osteosarcoma cells, drug combinations, measured here: combination with BGB at IC20, at 0.5 µM, stronger effect = higher value
Kind request: treat -30% as inclusive, so inhibition at -30% or higher is Y, anything lower is N.

>  <compound>
O=c1[nH]c(=O)n(C2OC(CO)C(O)C2O)cc1F (stereo unspecified)

>  <label>
Y

$$$$
>  <compound>
CCC1(c2ccccc2)C(=O)NC(=O)NC1=O

>  <label>
N

$$$$
>  <compound>
NC(Cc1ccc(N(CCCl)CCCl)cc1)C(=O)O (stereo unspecified)

>  <label>
N

$$$$
>  <compound>
Cc1c2ccncc2c(C)c2c1[nH]c1ccccc12

>  <label>
Y

$$$$
>  <compound>
O=C1CCC[C@@H]2[C@H]3CCCN4CCC[C@@H](CN12)[C@@H]34

>  <label>
Y

$$$$
>  <compound>
Cn1c(CCCC(=O)O)nc2cc(N(CCCl)CCCl)ccc21

>  <label>
N

$$$$

====

Assay: antimalarial activity against Dd2 strain (AID 2302);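 note: 0% = DMSO untreated growth and 100% = chloroquine plus artemisinin killed control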
Settings: P. falciparum Dd2 in RBCs, LDH growth readout, 72 h; at 2 µM
Activity calls are given as the source filed them.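 Rule for the calls: active = growth inhibition above 50% at the single 2 µM test dose, taken to imply half-maximal potency below 2 µM; inactive = the rest.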
Outcomes: t for active, f for inactive

>  <compound>
Cc1cc(N(C)C2CCN(C)CC2)nc(Nc2ccc(Cl)cc2)n1

>  <label>
t

$$$$
>  <compound>
CC(Cc1ccc(OCc2ccccc2)c(Cl)c1)NCC(O)c1cccc(C(F)(F)F)c1 (stereo not given)

>  <label>
t

$$$$
>  <compound>
CNCCc1c(O)ccc2ccccc12

>  <label>
f

$$$$
>  <compound>
O=C(NC1CCC(CN2CCC(c3c[nH]c4ccccc34)CC2)CC1)c1cc2ccccc2o1 (stereo not given)

>  <label>
f

$$$$
>  <compound>
Oc1cc2c(cc1CN1CCN(Cc3ccccc3)CC1)CCC2

>  <label>
t

$$$$
>  <compound>
CC(Cc1ccc(OCCCCOc2ccccc2)cc1)NCCc1ccccc1Cl (stereo not given)

>  <label>
t

$$$$
>  <compound>
COc1cc(CN2CCN(c3ccnc(N(C)C4CCN(C)CC4)n3)CC2)cc(Cl)c1O

>  <label>
t

$$$$
>  <compound>
CC(C)CNCc1cccc(-c2cccc(CN(C(=O)Nc3ccccc3)C3CCN(Cc4ccccc4)CC3)c2)c1

>  <label>
t

$$$$
>  <compound>
COc1ccc2[nH]cc(C3CCN(Cc4ccc(NC(=O)c5ccc(-c6ccccc6)cc5)cc4)CC3)c2c1

>  <label>
t

$$$$
>  <compound>
Cc1cc(-c2ncc[nH]2)ccc1-c1ccc(C(=O)N2CCc3cc4c(cc32)C2(CCN(C)CC2)CO4)cc1

>  <label>
t

$$$$

====

Each record here notes measured growth inhibition.
Assay: inhibition of 3D7 malaria parasite growth – strain 3D7 (AID 2306);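 note: 0% = DMSO wells and 100% = chloroquine plus artemisinin control wells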
Details: P. falciparum 3D7 erythrocytic growth, LDH absorbance, 72 h; at 2 µM; stronger effect = higher value

>  <compound>
O=C(/C=C/c1cc(C(F)(F)F)ccc1F)NC1CCC(CN2CCC(c3c[nH]c4ccccc34)CC2)CC1 (centres undefined)

>  <growth inhibition [%]>
101

$$$$
>  <compound>
COc1ccc(OC)c(C=CC(=O)NC2CCC(CN3CCC(c4c[nH]c5ccccc45)CC3)CC2)c1 (centres undefined)

>  <growth inhibition [%]>
98

$$$$
>  <compound>
COc1ccc(O)c(CN2CCN(c3cc(C)ccc3C)CC2)c1

>  <growth inhibition [%]>
90

$$$$
>  <compound>
COCC(=O)N(Cc1ccccc1-c1cccc(CNCCc2ccccc2)c1)C1CCN(Cc2ccccc2)CC1

>  <growth inhibition [%]>
93

$$$$
>  <compound>
CC[C@H]1CN2CC[C@H]1C[C@H]2[C@H](OC(=O)c1ccccc1)c1cc(C#N)nc2ccc(OC)cc12

>  <growth inhibition [%]>
97

$$$$
>  <compound>
Cc1ccc(CC(C)NCC(O)c2cccc(C(F)(F)F)c2)c(C)c1 (centres undefined)

>  <growth inhibition [%]>
99

$$$$
>  <compound>
FC(F)(F)c1ccc(NC(=S)N2CCC(CN3CCC(c4c[nH]c5ccccc45)CC3)CC2)cc1

>  <growth inhibition [%]>
100

$$$$
>  <compound>
O=C(NC1CCC(CN2CCC(c3c[nH]c4ccccc34)CC2)CC1)c1csc(-c2cccc(Cl)c2Cl)n1 (centres undefined)

>  <growth inhibition [%]>
99

$$$$
>  <compound>
CCN1CCC(N2CCC(n3c(C)nc4cc(C(F)(F)F)ccc43)CC2)CC1

>  <growth inhibition [%]>
93

$$$$

====

Assay: suppressors of polyglutamine aggregation in yeast, 75Q-TubH (AID 1616)
Conditions: S. cerevisiae 75Q-TubH polyglutamine aggregation suppression; stronger effect = higher value

>  <compound>
CN1CC(CNC(=O)OCc2ccccc2)CC2c3cccc4c3c(cn4C)CC21 (stereo unspecified)

>  <aggregation suppression score>
1.13

$$$$
>  <compound>
Clc1ccc(COC(Cn2ccnc2)c2ccc(Cl)cc2Cl)cc1 (stereo unspecified)

>  <aggregation suppression score>
0.0462

$$$$
>  <compound>
CN1CC[C@]23c4c5ccc(O)c4O[C@H]2[C@H](O)C=CC3[C@H]1C5 (stereo partly specified)

>  <aggregation suppression score>
1.13

$$$$
>  <compound>
C=C(C)[C@@H]1[C@H]2OC(=O)[C@@H]1[C@]1(O)C[C@H]3O[C@]34C(=O)O[C@H]2[C@]14C

>  <aggregation suppression score>
1.46

$$$$
>  <compound>
OC1CCCCC1N1CCC(c2ccccc2)CC1 (stereo unspecified)

>  <aggregation suppression score>
1.46

$$$$
>  <compound>
COC(=O)C1=CCCN(C)C1

>  <aggregation suppression score>
1.35

$$$$
>  <compound>
C=C1C2CC[C@H]3[C@]4(C)C[C@H](OC5OC(CO)C(OS(=O)(=O)O)C(OS(=O)(=O)O)C5OC(=O)CC(C)C)C[C@@H](C(=O)O)[C@H]4CC[C@]3(C2)[C@H]1O (stereo partly specified)

>  <aggregation suppression score>
1.68

$$$$
>  <compound>
O=C1CN=C(c2ccccc2)c2cc(Cl)ccc2N1

>  <aggregation suppression score>
1.12

$$$$
>  <compound>
CCC(C)C(=O)O[C@H]1[C@H](O)C2C(CN3CC(C)CCC3[C@@]2(C)O)C2C[C@]34O[C@]5(O)C(OC(=O)C(C)(O)CC)CC[C@@]3(C)C5C(OC(C)=O)[C@@H](OC(C)=O)C4[C@@]21O (stereo partly specified)

>  <aggregation suppression score>
1.64

$$$$
>  <compound>
CCCCCCCCCCCCCCCC[N+](C)(C)C

>  <aggregation suppression score>
-0.0208

$$$$
>  <compound>
CCC1(c2ccc(N)cc2)CCC(=O)NC1=O (stereo unspecified)

>  <aggregation suppression score>
1.06

$$$$
>  <compound>
CCNC(C)Cc1cccc(C(F)(F)F)c1 (stereo unspecified)

>  <aggregation suppression score>
1.24

$$$$
>  <compound>
CC[C@H]1C(=O)OC[C@@H]1Cc1cccn1C

>  <aggregation suppression score>
1.24

$$$$
>  <compound>
O=c1[nH]oc2c1CCNC2

>  <aggregation suppression score>
1.43

$$$$
>  <compound>
CC[C@@H](CO)NC(=O)[C@@H]1C=C2c3cccc4[nH]cc(c34)C[C@H]2N(C)C1

>  <aggregation suppression score>
1.32

$$$$
>  <compound>
CC[C@@H]1[C@@H](O)N2C3C[C@H]1C1C(O)[C@]4(C[C@@H]12)c1ccccc1N(C)[C@@H]34 (stereo partly specified)

>  <aggregation suppression score>
1.31

$$$$
>  <compound>
CCCC(C)(COC(N)=O)COC(=O)NC(C)C (stereo unspecified)

>  <aggregation suppression score>
1.4

$$$$
>  <compound>
CN(C)[C@@H]1C(=O)C(C(N)=O)=C(O)[C@@]2(O)C(=O)C3=C(O)c4c(O)cccc4[C@@](C)(O)[C@H]3C[C@@H]12

>  <aggregation suppression score>
0.769

$$$$
>  <compound>
Cc1cc2c(C(C)C)c(O)c(O)c(C=O)c2c(O)c1-c1c(C)cc2c(C(C)C)c(O)c(O)c(C=O)c2c1O

>  <aggregation suppression score>
0.368

$$$$
>  <compound>
C=CCc1ccc2c(c1)OCO2

>  <aggregation suppression score>
0.706

$$$$
>  <compound>
CC(N)Cc1ccc2c(c1)OCO2 (stereo unspecified)

>  <aggregation suppression score>
1.15

$$$$

====

Experiment: LFS_MB_P medulloblastoma growth inhibition, cell-based, chromothripsis tumors, cisplatin or BGB combos (AID 1671449);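 note: cells exposed for 96 hours; 0% = vehicle DMSO and 100% = killing by high DMSO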
Details: LFS_MB_P medulloblastoma cells, measured here: combination with BGB IC20, at 0.005 µM
Would you mind labelling by inhibition? At or over -30% is 1, under is -1.

>  <compound>
Cn1c(CCCC(=O)O)nc2cc(N(CCCl)CCCl)ccc21

>  <label>
1

$$$$
>  <compound>
O=P(O)(NCCCl)NCCCl

>  <label>
1

$$$$
>  <compound>
O=C1CCC[C@@H]2[C@H]3CCCN4CCC[C@@H](CN12)[C@@H]34

>  <label>
1

$$$$
>  <compound>
COc1cc(C2c3cc4c(cc3C(O)C3COC(=O)C23)OCO4)cc(OC)c1OC (stereo not given)

>  <label>
1

$$$$
>  <compound>
CC1(C)C(C(=O)Nc2ccc(S(=O)(=O)c3ccc(NC(=O)C4C(C)(C)C4(C)C)cc3)cc2)C1(C)C

>  <label>
1

$$$$
>  <compound>
Cn1c(COP(=O)(NCCBr)NCCBr)cnc1[N+](=O)[O-]

>  <label>
-1

$$$$
>  <compound>
O=P1(NCCCl)OCCCN1CCCl (stereo not given)

>  <label>
1

$$$$
>  <compound>
CN(C)NC(=O)CCC(=O)O

>  <label>
-1

$$$$
>  <compound>
Cc1c2ccncc2c(C)c2c1[nH]c1ccccc12

>  <label>
-1

$$$$
>  <compound>
O=C(O)CCCc1ccc(N(CCCl)CCCl)cc1

>  <label>
1

$$$$
